The measured values listed here are drawn from paper PMC12058161.

assayComment: in vivo
setupConditions: male, Sprague Dawley, rat, po, 352 mg/kg, Tmax
measurementType: Tmax

[[record]]
molecule = "C[C@@H]1CC[C@H]2[C@@H](C)C(=O)O[C@@H]3O[C@@]4(C)CC[C@@H]1[C@]32OO4 [ART, Artemisinin, reference compound]"
measurementtype = "Tmax"
result = "23.3 min"


----------
Recorded stability, Accuracy (measured versus nominal concentration) for the following molecules
assayComment: Stability of the five compounds in SD rat plasma (QC samples, UHPLC-ESI-MS/MS)
Assay type: in vitro ADME
setupConditions: SD rat plasma, nominal 1000 ng/mL, Room temperature 24h, n=5
measurementType: stability, Accuracy (measured versus nominal concentration) (%)

[[record]]
molecule = "C=C(C(=O)O)[C@@H]1CC[C@@H](C)[C@@H]2CCC(C)=C[C@@H]21 [AA, Artemisinic acid]"
readingunit = "%"
numericresult = 95.58

[[record]]
molecule = "C=C1CC[C@@H]2[C@H]3[C@@H](CC[C@H]2C)[C@@H](C)C(=O)O[C@H]13 [ARTI, Arteannuin I]"
readingunit = "%"
numericresult = 100.29

[[record]]
molecule = "CC1=C[C@H]2[C@@H](CC1)[C@H](C)CC[C@H]2[C@@H](C)C(=O)O [DHAA, Dihydroartemisinic acid]"
readingunit = "%"
numericresult = 95.97

[[record]]
molecule = "C[C@@H]1CC[C@H]2[C@@H](C)C(=O)O[C@@H]3O[C@@]4(C)CC[C@@H]1[C@]32OO4 [ART, Artemisinin, reference compound]"
readingunit = "%"
numericresult = 106.95

[[record]]
molecule = "C[C@@H]1CC[C@H]2[C@@H](C)C(=O)O[C@@H]3O[C@@]4(C)CC[C@@H]1[C@]32O4 [DEART, Deoxyartemisinin]"
readingunit = "%"
numericresult = 109.30

